B1: CPEB3 Ribozyme (parent)
chain: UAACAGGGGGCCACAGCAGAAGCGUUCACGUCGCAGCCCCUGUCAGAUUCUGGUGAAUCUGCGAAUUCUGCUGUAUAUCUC

Variants of: B1
Assay: self-cleavage, relative activity (ratio to wild type); higher = more cleavage; in vitro, sequencing
// self-cleavage lookup, one value per entry

- VARIANT_SPEC: "C40A U80A"
  self-cleavage: 0.26
- VARIANT_SPEC: "A21U G30A"
  self-cleavage: 0.1
- VARIANT_SPEC: "C62U A65G"
  self-cleavage: 0.27
- VARIANT_SPEC: "U25C A47U"
  self-cleavage: 0.23
- VARIANT_SPEC: "C37A U72C"
  self-cleavage: 0.33
- VARIANT_SPEC: "A35U C68A"
  self-cleavage: 0.11
- VARIANT_SPEC: "U31C A47U"
  self-cleavage: 0.4
- VARIANT_SPEC: "U49A G63C"
  self-cleavage: 0.88
- VARIANT_SPEC: "A64G U67G"
  self-cleavage: 0.44
- VARIANT_SPEC: "U26C C50A"
  self-cleavage: 0.44
- VARIANT_SPEC: "G30A U43A"
  self-cleavage: 0.24
